Target Entity: SHIP2 catalytic domain (SHIP2cd) (Homo sapiens, UniProt O15357)
Construct: SHIP2 catalytic domain, residues 419–832 in the vector pNIC-MBP
Sequence (O15357 419-832): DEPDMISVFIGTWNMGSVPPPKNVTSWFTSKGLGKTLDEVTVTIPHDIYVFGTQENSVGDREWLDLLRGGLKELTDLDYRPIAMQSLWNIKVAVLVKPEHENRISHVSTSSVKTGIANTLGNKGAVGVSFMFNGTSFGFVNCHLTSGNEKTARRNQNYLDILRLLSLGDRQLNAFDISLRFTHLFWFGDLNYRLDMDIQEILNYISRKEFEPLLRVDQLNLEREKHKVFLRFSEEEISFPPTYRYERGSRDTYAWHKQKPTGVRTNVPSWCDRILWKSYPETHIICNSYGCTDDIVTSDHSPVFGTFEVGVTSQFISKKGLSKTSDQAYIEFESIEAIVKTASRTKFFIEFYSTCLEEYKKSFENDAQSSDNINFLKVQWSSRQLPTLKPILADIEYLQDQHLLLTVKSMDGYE
Assay Name: Substrate activity: phosphate release from test compounds by SHIP2cd
Type: biochemical
Condition Parameters: Figures 7, 8, S7
Experimental Endpoint: SHIP2 catalytic activity

The cases that follow already have their SHIP2 catalytic activity on record.
Compound	Experimental Endpoint	Readout Value
O=P(O)(O)Oc1cc(-c2cc(OP(=O)(O)O)c(OP(=O)(O)O)c(OP(=O)(O)O)c2)cc(OP(=O)(O)O)c1OP(=O)(O)O [Compound 3, biphenyl 3,3′,4,4′,5,5′-hexakisphosphate]	SHIP2 catalytic activity	0.0147 PO4.E-1.s-1
O=P(O)(O)Oc1cc(OP(=O)(O)O)c(OP(=O)(O)O)cc1OCCOc1cc(OP(=O)(O)O)c(OP(=O)(O)O)cc1OP(=O)(O)O	SHIP2 catalytic activity	not detected
O=P(O)(O)Oc1cc(OP(=O)(O)O)c(OP(=O)(O)O)cc1OP(=O)(O)O [Compound 15, benzene 1,2,4,5-tetrakisphosphate]	SHIP2 catalytic activity	0.016 PO4.E-1.s-1
O=P(O)(O)Oc1cc(OP(=O)(O)O)c(-c2cc(OP(=O)(O)O)c(OP(=O)(O)O)cc2OP(=O)(O)O)cc1OP(=O)(O)O [Compound 2, biphenyl 2,2′,4,4′,5,5′-hexakisphosphate]	SHIP2 catalytic activity	0.0138 PO4.E-1.s-1

Lab note: record SHIP2 catalytic activity of O=P(O)(O)Oc1ccc(OCCOc2ccc(OP(=O)(O)O)c(OP(=O)(O)O)c2)cc1OP(=O)(O)O tested on SHIP2 catalytic domain (SHIP2cd) (Homo sapiens, UniProt O15357).
not detected

Cited source: paper PMC7610569
